// provenance: PubChem BioAssay (NCATS)

Each entry below lists one item and its recorded activity change, negative = cytotoxicity value.
- System: Hek293T
- EXPERIMENTAL_DETAILS: Primary qHTS to identify gynecologic anti-cancer compounds using libraries of approved drugs and bioactive compounds (AID 1345084); further: on the % scale 0 is the no-effect control and ±100 the full control effect; nearly all actives have a fitted effect of over 55% in size
- EXPERIMENTAL_CONDITIONS: Gynecologic cancer cell panel viability, ATPlite luminescence, 48 h, control line for the selectivity index; series mostly up to 57.5 µM
- Text: National Center for Advancing Translational Sciences [NCATS] Assay Overview: Chemotherapeutic drug responses vary from cancer to cancer and from patient to patient. […] ATPlite is a luminescence based assay reliant on the conversion of a luciferase substrate to light in the presence of ATP. As a cytotoxic compound will suppress growth and decrease the number of cells, the concentration of ATP will decrease, and less light signal will be detected in the well. […]
Results filed as inconclusive are left out. Active and inactive are the calls of the source. The call rests on the fitted dose curve; in most records, active means well fitted cell-killing curve with a large enough effect; inconclusive means small, poorly fitted or top-dose-only effect, or effect the other way; inactive means flat fitted curve, though single readings scatter.

Answered examples (5):
| MOLECULE | activity change, negative = cytotoxicity |
| --- | --- |
| C=CC(C)(O)CC/C=C(\C)C(=O)OC1C(O)C(CO)OC(OC(=O)C23CCC(C)(C)CC2C2=CCC4C5(C)CCC(OC6OC(COC7OCC(OC(C)=O)C(O)C7OC7OC(COC(C)=O)C(O)C(O)C7OC(C)=O)C(O)C(O)C6OC6OCC(O)C(O)C6O)C(C)(C)C5CCC4(C)C2(C)C(O)C3O)C1OC1OCC(OC2OCC(O)C(OC3OCC(O)C(O)C3O)C2O)C(O)C1O (centres undefined) | -1.14% [at 6.55 µM] (inactive) |
| CC(C)NC(=O)N1CC[C@H](N=C2Nc3cc(F)ccc3N(CC(F)F)c3ccc(Cl)cc32)C1 | 1.3% [at 11.6 µM] (inactive) |
| CCC/C=C/C(=O)O[C@H]1CC(C)(C)CC2[C@@]13[C@H](O)C[C@]1(C)[C@@]2(CCC2[C@@]4(C)CC[C@H](O[C@@H]5O[C@H](C(=O)O)[C@@H](O)[C@H](O[C@@H]6O[C@H](CO)[C@H](O)[C@H](O)[C@H]6O[C@@H]6O[C@@H](C)[C@H](O)[C@@H](O)[C@H]6O[C@@H]6OC[C@](O)(CO)[C@H]6O)[C@H]5O[C@@H]5O[C@H](CO)[C@H](O)[C@H](O)[C@H]5O)C(C)(C)C4CC[C@]21C)O[C@H]3O (some centres undefined) | -25.4% [at 6.55 µM] (inactive) |
| CC1(C)CCC2(C(=O)OC3OC(COC4OC(CO)C(O)C(O)C4O)C(O)C(O)C3O)CCC3(C)C(=CCC4C5(C)CCC(OC6OCC(O)C(O)C6O)C(C)(C)C5CCC43C)C2C1O (centres undefined) | -15.1% [at 11.6 µM] (inactive) |
| C[C@@H]1O[C@@H](O[C@H]2[C@H](O[C@H]3CC[C@@]4(C)C(CC[C@]5(C)C4C=C[C@]46OC[C@@]7(CCC(C)(C)C[C@H]74)[C@@H](O[C@@H]4O[C@@H](C)[C@H](O)[C@@H](O)[C@H]4O)C[C@]65C)[C@]3(C)CO)O[C@H](CO)[C@@H](O)[C@@H]2O[C@@H]2O[C@H](CO)[C@@H](O)[C@H](O)[C@H]2O)[C@H](O)[C@H](O)[C@H]1O (some centres undefined) | -8.24% [at 11.6 µM] (inactive) |

Query: activity change, negative = cytotoxicity; subject: CO[C@H]1[C@@H](O)[C@H](O[C@H]2CC[C@@]3(C)C(CCC4C3CC[C@]35COC6(COC(=O)C6)C3CCC45O)C2)O[C@@H](C)[C@@H]1OC1OC(CO)C(OC2OC(CO)C(O)C(O)C2O)C(O)C1O (some centres undefined)
-29.3% [at 11.6 µM] (inactive)

Query: activity change, negative = cytotoxicity; subject: CCC(C)(OC(C)=O)C(=O)O[C@H]1[C@H](OC(C)=O)[C@]2(CO)[C@H](O)[C@H](O)[C@]3(C)C(=CCC4[C@@]5(C)CC[C@H](O[C@@H]6O[C@H](C(=O)O)[C@@H](O)[C@H](O[C@@H]7OC[C@H](O)[C@H](O[C@@H]8OC[C@H](O)[C@H](O)[C@H]8O)[C@H]7O)[C@H]6O[C@@H]6O[C@H](CO)[C@@H](O)[C@H](O)[C@H]6O)C(C)(C)C5CC[C@]43C)[C@@H]2CC1(C)C (some centres undefined)
-17.4% [at 6.55 µM] (inactive)

Query: activity change, negative = cytotoxicity; subject: CC(=O)O[C@@H]1C[C@]2(C)[C@@]3(CCC4[C@@]5(C)CC[C@H](O[C@@H]6O[C@H](C(=O)O)[C@@H](O)[C@H](OC7OC(CO)C(O)C(O)[C@H]7O[C@@H]7O[C@@H](C)[C@H](O)[C@@H](O)[C@H]7O[C@@H]7OC[C@](O)(CO)[C@H]7O)[C@H]6OC6OC(CO)C(O)C(O)C6O)C(C)(C)C5CC[C@]42C)OC[C@@]12CCC(C)(C)CC23 (some centres undefined)
-10.7% [at 6.55 µM] (inactive)

Query: activity change, negative = cytotoxicity; subject: CC(CCC1(O)OC2CC3C4CC=C5CC(O[C@@H]6O[C@H](CO)[C@@H](O[C@@H]7O[C@@H](C)[C@H](O)[C@@H](O)[C@H]7O)[C@H](O)[C@H]6O[C@@H]6O[C@@H](C)[C@H](O)[C@@H](O)[C@H]6O)CCC5(C)C4CCC3(C)C2C1C)CO[C@@H]1O[C@H](CO)[C@@H](O)[C@H](O)[C@H]1O (some centres undefined)
4.44% [at 11.6 µM] (inactive)
